These data points were gathered from PubChem BioAssay AID248.

Test system: L1210 leukemia ip in BDF1 mice, survival T/C
assay_protocol: NCI In Vivo Anticancer Drug Screen. Data for tumor model L1210 Leukemia (intraperitoneal) in B6D2F1 (BDF1) mice
assay_conditions: endpoint: mean survival time; dose: 100.0 mg/kg/injection; schedule: Q01DX009 (ip); vehicle: Klucel (hydroxypropylcellulose) (HPC)
Toxic doses and inconclusive results are not listed. Cut-off read from the data, not from the text of the source: active = T/C of 150% or more; inactive = T/C below 125%.
Respond only with the outcome that fits, drawn from 1 = active, -1 = inactive

Request: In this assay, the call recorded for CCOC(=O)c1cc(=O)[nH]c2cc(N)ccc12 was what?
Result: -1

Request: In this assay, the call recorded for Clc1ccc(C(c2ccc(Cl)cc2)c2ccccn2)cc1 was what?
Result: -1

* * *

For each of the molecules below, state its T/C.
Test system: L1210 leukemia ip in BDF1 mice, survival T/C
assay_protocol: NCI In Vivo Anticancer Drug Screen. Data for tumor model L1210 Leukemia (intraperitoneal) in B6D2F1 (BDF1) mice
assay_conditions: endpoint: mean survival time; dose: 400.0 mg/kg/injection; schedule: Q01DX009 (ip); vehicle: Klucel (hydroxypropylcellulose) (HPC); higher = longer survival
Inconclusive results and toxic doses are left out.

Check out these entries, answers already filled in.
COc1ccc(C(=O)Nc2ccccc2)cc1NC(=O)Nc1ccccc1C(F)(F)F ... 95 % of control
CCOC(=O)c1cnc(SC)nc1Oc1ccccc1F ... 97 % of control

Request: Fill blank: measured T/C of the molecule COc1ccc(C(=O)N/N=C/c2ccc(Cl)cc2Cl)cc1 is ____.
Result: 91 % of control

* * *

System: L1210 leukemia ip in BDF1 mice, survival T/C
assay_protocol: NCI In Vivo Anticancer Drug Screen. Data for tumor model L1210 Leukemia (intraperitoneal) in B6D2F1 (BDF1) mice
assay_conditions: endpoint: mean survival time; dose: 100.0 mg/kg/injection; schedule: Q01DX001 (ip); vehicle: saline; higher = longer survival
Inconclusive results and toxic doses are left out.
reported_metric: T/C

Check out these entries, answers already filled in.
OCC1OC(c2ccccc2)OC1C1OC(c2ccccc2)OC1CO (centres undefined) ... 98 % of control
N#CCC(N)C(=O)O (centres undefined) ... 96 % of control
CCCCCCC(C)(C)NC(N)=O ... 98 % of control
Cc1ccccc1SCCC(=O)O ... 100 % of control
CCCCCCCSc1ncnc2c1ncn2CO ... 101 % of control
Oc1cc(O)c(CN2CCCCC2)cc1CN1CCCCC1 ... 87 % of control

Fill in T/C for each of the 5 compounds listed.
1. CN1C(=O)NC(=O)C12CCNCC2
2. COC(=O)c1cn[nH]c1C(=O)OC
3. COc1ccc([N+](=O)[O-])cc1/C=C/C=O
4. S=P(Oc1cc(Cl)c(Cl)cc1Cl)(N1CCN(c2ccccc2)CC1)N1CCN(c2ccccc2)CC1
5. COC(=O)c1cc(C)c(C)cc1N

Result:
97 % of control
100 % of control
100 % of control
90 % of control
102 % of control

Fill in T/C for each of the 3 compounds listed.
1. N#CCC1=CC(=O)C(=O)c2ccccc21
2. CC(=O)CC(=O)NCCN1CCN(C(=O)CC(C)=O)CC1
3. COc1ccccc1OC(=O)c1ccccc1O

Result:
1. 102 % of control
2. 93 % of control
3. 107 % of control

Fill in T/C for each of the 5 compounds listed.
1. CSc1ncnc2c1ncn2C1OC(CO)C(O)C1O (centres undefined)
2. CN(C)c1ccc(/C=N\NC(=S)Nc2ccccc2)c(Cl)c1
3. COc1ccc(OC)c(/C=C/C=O)c1
4. COC(=O)c1c[nH]c(=O)cc1O
5. O=P(CCCCCCCCCCP(=O)(c1ccccc1)c1ccccc1)(c1ccccc1)c1ccccc1

Result:
1. 111 % of control
2. 87 % of control
3. 110 % of control
4. 101 % of control
5. 91 % of control

* * *

Test system: L1210 leukemia ip in BDF1 mice, survival T/C
assay_protocol: NCI In Vivo Anticancer Drug Screen. Data for tumor model L1210 Leukemia (intraperitoneal) in B6D2F1 (BDF1) mice
assay_conditions: endpoint: mean survival time; dose: 400.0 mg/kg/injection; schedule: Q01DX001 (ip); vehicle: Klucel (hydroxypropylcellulose) (HPC); higher = longer survival
Description: The antitumor activity of compounds was measured in mice bearing transplantable tumors. Survival or tumor size were measured and the results are expressed as the measurement made in the treated group (T) divided by the measurement made in the vehicle treated control group (C). The tumor model used in this assay is L1210 Leukemia (intraperitoneal) in B6D2F1 (BDF1) mice
Toxic doses and inconclusive results are not listed.
reported_metric: T/C

OCC1c2ccccc2C(CO)c2c1ccc1ccccc21 (stereo not given) ... 100 % of control
C1CCC(CCC(CCC2CCCCC2)CCC2CCCCC2)CC1 ... 91 % of control
CC1=CC(=O)CC(=O)O1 ... 103 % of control
CCCCCCCCOC(=O)CCC(N)C(=O)O (stereo not given) ... 98 % of control
CCC(CN)(c1cccs1)c1cccs1 ... 103 % of control
CC(C)(C)C1=CC(=O)C=C(C(C)(C)C)C1=O ... 100 % of control
C=C(C)C1CC=C(C=O)CC1 (stereo not given) ... 92 % of control
NC(C(=O)O)c1cccc(Cl)c1 (stereo not given) ... 105 % of control
O=C(O)CSC1(SCC(=O)O)CCCCC1 ... 97 % of control
O=c1c2ccccc2c2ccccc2n1-c1ccccc1 ... 91 % of control

Fill in T/C for each of the 2 compounds listed.
1. CC(=O)Nc1c2ccccc2nc2c1c(C)c(C)c1ccccc12
2. CC(C)C(=O)Nc1ccc([N+](=O)[O-])c(C(F)(F)F)c1

Result:
91 % of control
110 % of control

* * *

Test system: L1210 leukemia ip in BDF1 mice, survival T/C
assay_protocol: NCI In Vivo Anticancer Drug Screen. Data for tumor model L1210 Leukemia (intraperitoneal) in B6D2F1 (BDF1) mice
assay_conditions: endpoint: mean survival time; dose: 12.5 mg/kg/injection; schedule: Q01DX009 (ip); vehicle: Klucel (hydroxypropylcellulose) (HPC); higher = longer survival
Toxic doses and inconclusive results are not listed.
For each of the compounds below, state its T/C.

Check out these entries, answers already filled in.
CN1CCCCC1C[CH2][Sn]([c]1ccccc1)([c]1ccccc1)[c]1ccccc1 (stereo not drawn) ... 92 % of control
Clc1c(C(Cl)(Cl)Cl)nc2ccccc2c1Br ... 97 % of control

For the next question, use this compound.
Request: Form field: T/C recorded for C=C(Br)CNCCCCCC with L1210 leukemia ip in BDF1 mice, survival T/C (enter value)
Result: 94 % of control

* * *

Test system: L1210 leukemia ip in BDF1 mice, survival T/C
assay_protocol: NCI In Vivo Anticancer Drug Screen. Data for tumor model L1210 Leukemia (intraperitoneal) in B6D2F1 (BDF1) mice
assay_conditions: endpoint: mean survival time; dose: 200.0 mg/kg/injection; schedule: Q04DX002 (ip); vehicle: saline with Tween-80; higher = longer survival
Inconclusive results and toxic doses are left out.
reported_metric: T/C

Check out these entries, answers already filled in.
CC(=O)NC1CCC(/C=C(\C#N)C2CCC(C)CC2)CC1 (stereo not given) ... 93 % of control
Cc1c[n+]([O-])c(C)cc1N=Nc1ccc(N(C)C)cc1 ... 99 % of control
CN(C)C=Nc1cccc2cn[nH]c12 ... 106 % of control
O=C(/C=C/c1cccc(Cl)c1)c1ccccc1 ... 97 % of control
COC1CCC(/C(C#N)=C/C2CCC3OCOC3C2)CC1 (stereo not given) ... 90 % of control
CCOc1ccccc1/C=C1N=C(/C=C/c2ccccc2)OC\1=O ... 89 % of control
O=C1c2ccccc2-c2ccc(-c3ccccc3)c3cccc1c23 ... 105 % of control
CCCC(C)OS(=O)(=O)c1ccc(Br)cc1 (stereo not given) ... 100 % of control
O=C(Nc1ccccc1)N1CCN=C1C1CCCc2ccccc21 (stereo not given) ... 89 % of control

For the next question, use this compound.
Request: Fill blank: measured T/C of the compound Clc1ccc2c(c1)Sc1ccccc1O2 is ____.
Result: 101 % of control

* * *

Tested on: L1210 leukemia ip in BDF1 mice, survival T/C
assay_protocol: NCI In Vivo Anticancer Drug Screen. Data for tumor model L1210 Leukemia (intraperitoneal) in B6D2F1 (BDF1) mice
assay_conditions: endpoint: mean survival time; dose: 50.0 mg/kg/injection; schedule: Q01DX009 (ip); vehicle: saline; higher = longer survival
Toxic doses and inconclusive results are not listed.
reported_metric: T/C

Cn1nc(N)c2nccnc21 ... 98 % of control

Fill in T/C for each of the 4 molecules listed.
1. CCCCN(CCCC)CCCC#N
2. O=CC(=O)c1ccccc1
3. COc1cc(N[Si](C)(C)C)nc(OC)n1
4. Cc1nsc(N)n1

Result:
1. 103 % of control
2. 104 % of control
3. 100 % of control
4. 100 % of control

Request: Form field: T/C recorded for C(=N/OC(c1ccccc1)(c1ccccc1)c1ccccc1)/c1ccccc1 with L1210 leukemia ip in BDF1 mice, survival T/C (enter value)
Result: 98 % of control
